Test: qHTS Assay for Lipid Storage Modulators in Drosophila S3 Cells
Settings: BODIPY lipid droplet fluorescence, 18-24 h, cells fed with added oleic acid; series mostly up to 46.1 µM
Source text: NIH Molecular Libraries Probe Production Centers Network [MLPCN] NIH Chemical Genomics Center [NCGC] […] Triacsin C (Sigma-Aldrich T-4540), an inhibitor of long-chain fatty acyl CoA synthetase that blocks synthesis of triglycerides, was used as a positive control for lipid under-storage. […] Fluorescence was detected by excitation of the fluorophores with a 488-nm laser on an Acumen Explorer (TTP Lab Tech). […] Cells were detected using channel 3 (575-640 nm) with 5-um width and 100-um depth filters. […]
Hit rate of the full screen: of about 320,000 compounds, about 2,100 (0.66%) were called active. Roughly 53% stayed inconclusive and do not appear here. The call rests on the fitted dose curve; in most records, active means well fitted inhibition curve with a large enough effect in the signal ratio, with a control signal flat (not every such curve was filed as active); inconclusive means small, poorly fitted or top-dose-only effect, or effect the other way, or a change in a side signal; inactive means flat fitted curve, though single readings scatter; the % refers to the signal ratio. The full list was thinned out, with actives kept by preference.
Tick one outcome: 1.0 (active), 0.0 (inactive)

Use these answered entries as a reference point.
COc1c(C)cc(C(=O)C2CCCN(Cc3cnc(C)s3)C2)cc1C (stereo unspecified): 0.0
O=C(CCN1C(=O)COc2ccccc21)N1CCC2(CC1)OCCO2: 0.0
COc1ccc(CNCCc2c(C)[nH]c3ccc(OC(F)(F)F)cc23)c(OC)c1: 1.0
CCCCOC(=O)C1=C(N)OC2=C(C(=O)CC(C)(C)C2)[C@]12C(=O)N(C)c1ccccc12: 0.0
COc1ccc2[nH]c(C)c(CCNCc3cc(OC)c4c(c3)OCO4)c2c1: 0.0

query: Answer briefly: the call reported for COc1cccc(CNCCc2ccccc2)c1OC in this assay.
result: 0.0

* * *

Assay: qHTS Assay for Lipid Storage Modulators in Drosophila S3 Cells
Conditions: BODIPY lipid droplet fluorescence, 18-24 h, cells fed with added oleic acid; series mostly up to 46.1 µM
The whole screen tested about 320,000 compounds, of which about 2,100 (0.66%) were called active. Another 53% or so got no clear call; they are omitted. The call rests on the fitted dose curve; in most records, active means well fitted inhibition curve with a large enough effect in the signal ratio, with a control signal flat (not every such curve was filed as active); inconclusive means small, poorly fitted or top-dose-only effect, or effect the other way, or a change in a side signal; inactive means flat fitted curve, though single readings scatter; the % refers to the signal ratio. The list comes from a sample in which actives are over-represented; it also holds close analogues and randomly drawn compounds.
API: response.call in 1.0 (active), 0.0 (inactive)

As a guide, the following entries are already answered.
CC(=NC1CCN(Cc2ccccc2)CC1)c1c(O)n(C)c(=O)n(C)c1=O: 1.0
COc1ccc(N2CCN(Cc3nc4ccccc4[nH]3)CC2)cc1: 0.0
CCC(=NCCO)c1c(O)n(-c2ccccc2)c(=O)[nH]c1=O: 1.0
CCN(CC)C(=O)c1ccc(NC(=O)COc2ccc(-c3nn(C)c(=O)c4ccccc34)cc2)cc1: 0.0
COc1ccc(C)cc1NC(=O)c1c(C)nn(Cc2ccccc2)c1Cl: 0.0
COc1cc(/C=C2\C(=O)NC(=O)N(c3ccccc3)C2=O)cc(OC)c1OC: 1.0
COc1ccccc1NC1=NCCS1: 1.0
COC(=O)C1=C(c2ccccc2OCc2ccccc2)C[C@@H]2CC[C@H]1N2C(=O)NCc1ccccc1: 0.0
O=c1[nH]c(=O)n(-c2ccc(Br)cc2)c(O)c1C=NC(CO)(CO)CO: 0.0
CN1CCN(c2ccc(N)c(N3CCN(C)CC3)c2)CC1: 0.0

query: Any idea what this test logged for CCOC(=O)N(C)c1ccc(C(O)(C(=O)OC)C(F)(F)F)cc1 (stereo not given) ?
result: 0.0

query: For this molecule, state the assay outcome: ClC(Cl)(Cl)c1ccccc1
result: 1.0

query: Which outcome was entered for the molecule C/C=C1/CC(C)C(C)(O)C(=O)OCC2CCN3CCC(OC1=O)C23 (stereo not given) in this test?
result: 0.0

query: Which outcome was assigned to COc1cccc(NC2=NCCCS2)c1 in this test?
result: 0.0

query: I'd appreciate the recorded outcome for Cc1ccc(NP(=O)(Oc2ccccc2F)Oc2ccccc2F)cc1 from this test.
result: 0.0
